Biological target: Sushi domains (SD1/2) protein of the GABAB1a (GB1a) subunit, recombinant
Sequence (Q9Z0U4 29-158): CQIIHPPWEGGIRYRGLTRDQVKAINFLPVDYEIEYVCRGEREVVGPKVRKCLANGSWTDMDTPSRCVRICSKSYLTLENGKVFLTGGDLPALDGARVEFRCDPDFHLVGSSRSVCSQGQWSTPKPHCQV
Test: FP competition
pKi: −log10 of the molar value. Non-standard residues stand in square brackets, D forms with d. NMeA = CN[C@@H](C)C(=O)O
Mark class 1 for reported pKi of 6 or greater; mark class 0 for anything smaller.

| binder | group.label |
| --- | --- |
| Ac-DAEEDDSDVWWGGADTDYAD-NH2 | class 1 |
| Ac-SADAEEDDSDVWWGGADTDYAD-NH2 | class 1 |
| Ac-TETEFIAWGP-NH2 | class 1 |
| Ac-EDDSDVWWAGADTD-NH2 | class 1 |

Query :: Textbook exercise: given the entry Ac-PW[NMeA]IVWGPTVSRED-NH2 (SMILES CC[C@H](C)[C@H](NC(=O)[C@H](C)N(C)C(=O)[C@H](Cc1c[nH]c2ccccc12)NC(=O)[C@@H]1CCCN1C(C)=O)C(=O)N[C@H](C(=O)N[C@@H](Cc1c[nH]c2ccccc12)C(=O)NCC(=O)N1CCC[C@H]1C(=O)N[C@H](C(=O)N[C@H](C(=O)N[C@@H](CO)C(=O)N[C@@H](CCCNC(=N)N)C(=O)N[C@@H](CCC(=O)O)C(=O)N[C@@H](CC(=O)O)C(N)=O)C(C)C)[C@@H](C)O)C(C)C) [PW(N-Me-A)…] , state whether its pKi is greater than or equal to 6.
Result :: class 0
